B1: PLD5 (parent)
chain: KRTYWPDLDAKIREALVLRSVRVR

Variants of: B1
protocolDescription: protein stability index of a GFP-peptide fusion (GPS, HEK-293T) (PSI 1-6); higher = more stable;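 note: lentivirally expressed fusions sorted by FACS into six bins by GFP to DsRed ratio, PSI derived from sequencing read proportions per bin multiplied by bin number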
conditionNotes: c terminus: a fixed tail appended
Note to self: values exactly at 2 are 1 (yes). So protein stability index at or above 2 is 1 (yes), below is 0 (no).

Q: Entry "R22S" : is its protein stability index no less than 2?
Ans: 1 (yes)

Q: Same read-out for "R19H" ?
Ans: 0 (no)

Q: "R19K" , same question.
Ans: 0 (no)

Q: Let us now turn to "L18V"
Ans: 0 (no)

Q: Can you check "R13Y" next?
Ans: 0 (no)

Q: Proceed to "D7E"
Ans: 0 (no)

Q: Check "L16G" too.
Ans: 0 (no)

Q: Similarly, "R2F" ?
Ans: 1 (yes)

Q: Follow-up entry: "V17K"
Ans: 0 (no)

Q: # iterate: "W5I"
Ans: 1 (yes)
